Data provenance is patent US20090042820A1.

Experiment: H460 xenograft mouse model
Format: in vivo
Settings: female, mouse, in vivo; daily dose for five days, CB17/SCID mice; read-out: maximum tolerated dose
Experimental: Female CB17/SCID mice (purchased from Taconic, Oxnard, Calif.), 7-8 weeks of age, were allowed to acclimatize for at least three days, and handled under pathogen-free conditions. […] The body weight of each mouse was recorded twice per week (FIG. 1). […] FIG. 2 graphically illustrates the mean tumor volume for each treatment group. Growth of each xenograft was monitored by externally measuring tumors in two dimensions using a digital caliper twice per week. […] Tumor volumes were measured twice weekly. […]
result type: MTD at 5 days

Kindly note the recorded MTD at 5 days for "COc1cc(C(=O)c2n[nH]c3c(C#CCO)c(OC)ccc23)cc(OC)c1OC" , which is 5 to 20 mg/kg

* * *

test system: MES-SA; assay: Alamar Blue antiproliferation assay, MES-SA; assay type: cell-based; settings: Homo sapiens, 72 h, 3 Day
Field: GI50. Provide a value for each of the compounds that follow.
Field note: include the unit after the figure.

Kindly note the recorded GI50 for "COc1cc(C(=O)c2n[nH]c3c(C#CC(=O)O)c(OC)ccc23)cc(OC)c1OC" , which is 3.2 nM

Kindly note the recorded GI50 for COc1cc(C(=O)c2n[nH]c3c(C#CC(C)O)c(OC)ccc23)cc(OC)c1OC (stereo not shown) , which is 15.8 nM

Kindly note the recorded GI50 for "COc1cc(C(=O)c2n[nH]c3c(C#CCO)c(OC)ccc23)cc(OC)c1OC" , which is 0.3 nM

Kindly note the recorded GI50 for "COc1cc(C(=O)c2n[nH]c3c(CCCO)c(OC)ccc23)cc(OC)c1OC" , which is 12 nM

Kindly note the recorded GI50 for "C#Cc1c(OC)ccc2c(C(=O)c3cc(OC)c(OC)c(OC)c3)n[nH]c12" , which is 1.9 nM

Kindly note the recorded GI50 for "COc1cc(C(=O)c2n[nH]c3c(/C=C/CO)c(OC)ccc23)cc(OC)c1OC" , which is 3.2 nM

Kindly note the recorded GI50 for "COc1cc(C(=O)c2n[nH]c3c(Br)c(OC)ccc23)cc(OC)c1OC" , which is 2.5 nM

* * *

experiment: Metabolic stability in mouse liver microsomes; assay type: in vitro ADME; details: 5 μM, 1 mg/mL protein, NADPH, 37° C.
The threshold is 90%. Values of Metabolic stability (MLM, % remaining at 30 min) beneath it are tagged rule met; values meeting or exceeding it are tagged rule not met.

stdin: Check if Metabolic stability (MLM, % remaining at 30 min) falls below 90% for COc1cc(C(=O)c2n[nH]c3c(C(N)=O)c(OC)ccc23)cc(OC)c1OC [Compound 60] .
stdout: rule not met

stdin: Check if Metabolic stability (MLM, % remaining at 30 min) falls below 90% for COc1cc(C(=O)c2n[nH]c3c(C#CCO)c(OC)ccc23)cc(OC)c1OC [Compound 30] .
stdout: rule not met

stdin: Check if Metabolic stability (MLM, % remaining at 30 min) falls below 90% for COc1cc(C(=O)c2n[nH]c3c(C#N)c(OC)ccc23)cc(OC)c1OC [Compound 58] .
stdout: rule met

stdin: Check if Metabolic stability (MLM, % remaining at 30 min) falls below 90% for C#Cc1c(OC)ccc2c(C(=O)c3cc(OC)c(OC)c(OC)c3)n[nH]c12 [Compound 72] .
stdout: rule met

stdin: Check if Metabolic stability (MLM, % remaining at 30 min) falls below 90% for COc1cc(C(=O)c2n[nH]c3c(C#CCOC(=O)OCc4ccc([N+](=O)[O-])o4)c(OC)ccc23)cc(OC)c1OC [Compound 57] .
stdout: rule met

stdin: Check if Metabolic stability (MLM, % remaining at 30 min) falls below 90% for COc1cc(C(=O)c2n[nH]c3c(C#Cc4ccccn4)c(OC)ccc23)cc(OC)c1OC [Compound 68] .
stdout: rule met
